Each entry below carries its reported IC50.
Tested on: NCI-H358 (K-Ras G12C)
Assay: CellTiter-Glo cell viability assay, NCI-H358
Type: cell-based, human
Conditions: Homo sapiens, NCI-H358, read-out: H358 Cell Viability assay data (K-Ras G12C, IC50, uM), Table 5
Method: Note - The following protocol describes a procedure for monitoring cell viability of K-Ras mutant cancer cell lines in response to a compound of the invention. Other RAS isoforms may be employed, though the number of cells to be seeded will vary based on cell line used. Test compounds (132.5 nL) were directly dispensed into the assay plates containing cells. […] Luminescence was measured using the PerkinElmer Enspire. […]
READOUT NAME: IC50

molecule="C=CC(=O)Nc1ccc(C(=O)N(C)[C@H](C(=O)N[C@H]2Cc3cc(O)cc(c3)-c3ccc4c(c3)c(c(-c3cccnc3[C@H](C)OC)n4CC)CC(C)(C)COC(=O)[C@@H]3CCCN(N3)C2=O)C(C)C)cn1 [Compound A250]" readout_name=IC50 val="< 0.01 µM"
molecule="CCn1c(-c2cnccc2COC)c2c3cc(ccc31)-c1ccnc(c1)C[C@H](NC(=O)[C@H](C(C)C)N(C)C(=O)[C@H]1CCN(C(=O)C#CCN(C)C)C1)C(=O)N1CCC[C@H](N1)C(=O)OCC(C)(C)C2 [Compound A130]" readout_name=IC50 val="0.01 to 0.1 µM"
molecule="CCn1c(-c2cccnc2[C@H](C)OC)c2c3cc(ccc31)-c1cccc(c1)C[C@H](NC(=O)[C@H](C(C)C)N(C)C(=O)[C@H]1CCN(C(=O)C#CC(C)(C)N3CCC(F)(F)C3)C1)C(=O)N1CCC[C@H](N1)C(=O)OCC(C)(C)C2 (relative stereo) [Compound A325]" readout_name=IC50 val="0.1 to 1 µM"
molecule="C=CC(=O)N1CC[C@H](C(=O)N(C)[C@H](C(=O)N[C@H]2Cc3cc(O)cc(c3)-c3ccc4c(c3)c(c(-c3cc(CN(C)C)cnc3[C@H](C)OC)n4CC)CC(C)(C)COC(=O)[C@@H]3CCCN(N3)C2=O)C(C)C)C1 (single isomer, unassigned) [Compound A537]" readout_name=IC50 val="< 0.01 µM"

---

Tested on: NCI-H358 (K-Ras G12C)
Experiment: CellTiter-Glo cell viability assay, NCI-H358
Assay type: cell-based, human
Settings: Homo sapiens, NCI-H358, read-out: H358 Cell Viability assay data (K-Ras G12C, IC50, uM), Table 5
READOUT NAME: IC50

compound="CCn1c(-c2cccnc2[C@H](C)OC)c2c3cc(ccc31)-c1cccc(c1)C[C@H](NC(=O)[C@H](C(C)C)N(C)C(=O)[C@H]1CCN(C(=O)C#CCN(C)C)C1)C(=O)N1CCC[C@H](N1)C(=O)OCC(C)(C)C2 (atropisomer, axis not shown)" study_system="NCI-H358 (K-Ras G12C)" readout_name=IC50 val="< 0.01 µM"
compound=C=CC(=O)N1CC[C@H](C(=O)N(C)[C@H](C(=O)N[C@H]2Cc3cc(CF)cc(c3)-c3ccc4c(c3)c(c(-c3cccnc3[C@H](C)OC)n4CC(F)(F)F)CC(C)(C)COC(=O)[C@@H]3CCCN(N3)C2=O)C(C)C)C1 study_system="NCI-H358 (K-Ras G12C)" readout_name=IC50 val="< 0.01 µM"
compound=C=CC(=O)N1CC[C@H](C(=O)N(C)[C@H](C(=O)N[C@H]2Cc3cc(O)cc(c3)-c3ccc4c(c3)c(c(-c3cccnc3)n4[C@H](C)C#N)CC(C)(C)COC(=O)[C@@H]3CCCN(N3)C2=O)C(C)C)C1 study_system="NCI-H358 (K-Ras G12C)" readout_name=IC50 val="0.1 to 1 µM"
compound="C=CC(=O)N1CCO[C@H]2CCN(C(=O)N(C)[C@H](C(=O)N[C@H]3Cc4nc(cs4)-c4ccc5c(c4)c(c(-c4cccnc4[C@H](C)OC)n5CC)CC(C)(C)COC(=O)[C@@H]4CCCN(N4)C3=O)C(C)C)C[C@@H]21 (atropisomer, axis not shown)" study_system="NCI-H358 (K-Ras G12C)" readout_name=IC50 val="< 0.01 µM"
compound="C=CC(=O)Nc1cnc(C(=O)N(C)[C@H](C(=O)N[C@H]2Cc3cccc(c3)-c3ccc4c(c3)c(c(-c3cccnc3[C@H](C)OC)n4CC)CC(C)(C)COC(=O)[C@@H]3CCCN(N3)C2=O)C(C)C)n1C (atropisomer, axis not shown)" study_system="NCI-H358 (K-Ras G12C)" readout_name=IC50 val="< 0.01 µM"
compound="C=CC(=O)N1CCOC2CCN(C(=O)N(C)C(C(=O)NC3Cc4nc(cs4)-c4ccc5c(c4)c(c(-c4cccnc4C(C)OC)n5CC)CC(C)(C)COC(=O)C4CCCN(N4)C3=O)C(C)C)CC21 (centres unmarked)" study_system="NCI-H358 (K-Ras G12C)" readout_name=IC50 val="< 0.01 µM"
compound="CCn1c(-c2cccnc2C(C)OC)c2c3cc(ccc31)-c1cccc(c1)CC(NC(=O)C(C(C)C)N1CCC3(CCN(C(=O)C#CC(C)(C)N4CCC4)C3)C1=O)C(=O)N1CCCC(N1)C(=O)OCC(C)(C)C2 (centres unmarked)" study_system="NCI-H358 (K-Ras G12C)" readout_name=IC50 val="< 0.01 µM"
compound="C=CC(=O)N1CC[C@H](C(=O)N(C)[C@H](C(=O)N[C@H]2Cc3cc(O)cc(c3)-c3ccc4c(c3)c(c(-c3cccnc3[C@H](CC)OC)n4CC)CC(C)(C)COC(=O)[C@@H]3CCCN(N3)C2=O)C(C)C)C1 (atropisomer, axis not shown)" study_system="NCI-H358 (K-Ras G12C)" readout_name=IC50 val="< 0.01 µM"

Data origin: patent EP4806900A2
